# target-desc: Rap guanine nucleotide exchange factor 3 (Homo sapiens)
# assay-summary: Confirmatory qHTS for antagonist of cAMP-regulated guanine nucleotide exchange factor 3 (EPAC1) (AID 1645880); note: nearly all actives have a fitted effect of over 55% in size
# test-context: EPAC1 Rap1B-BODIPY-GDP exchange, fluorescence; series mostly up to 115 µM
Records with an inconclusive call do not appear. Active and inactive are the calls of the source. Calls come from the whole dose curve; as a rule, active = well fitted inhibition curve with a large enough effect; inconclusive = small, poorly fitted or top-dose-only effect; inactive = no such curve, though single readings can be large or run the other way.
Log the outcome using a class from yes (active), no (inactive)

{"compound": "Cc1nc2c(C(=O)NCCC(C)C)c[nH]n2c(=O)c1Cl", "class-label": "no"}
{"compound": "Cc1ccc([C@H]2C(C(=O)O)=CC[C@@H](c3ccc(Cl)c(Cl)c3)N2S(=O)(=O)c2ccc(C)cc2)cc1", "class-label": "yes"}
{"compound": "CCCCOc1ccccc1NC(=O)Cn1c(-c2cncs2)nc2ccccc21", "class-label": "no"}
{"compound": "CCCCNC(=O)c1ccc2nc(-c3ccco3)c(-c3ccco3)nc2c1", "class-label": "yes"}

In the following, a different compound is considered.
[in] Call for entry COc1ccc(-c2oc3c4c2C(=O)OCCOC4CCC3)cc1 (stereo not given) :
[out] no

###

# Tested on: 3D7
# assay-summary: qHTS profiling for inhibitors of Plasmodium falciparum proliferation (AID 504749); note: nearly all actives have a fitted effect of over 60% in size
# test-context: P. falciparum in erythrocytes, SYBR Green DNA, 72 h; series mostly up to 12.8 µM
Results filed as inconclusive are left out. Active and inactive are the calls of the source. Calls follow the shape of the dose curve; as a rule, active = well fitted inhibition curve with a large enough effect; inconclusive = small, poorly fitted or top-dose-only effect; inactive = flat fitted curve, though single readings scatter. Peptide text beside a SMILES is read from it.
Field 'call' accepts active, inactive

Please review the following examples before continuing.
{"molecule": "CCN[C@@H]1C[C@H](N)[C@H](O[C@H]2OC(CN)=CC[C@H]2N)[C@@H](O)[C@H]1O[C@H]1OC[C@@](C)(O)[C@@H](NC)[C@@H]1O", "class-label": "inactive"}
{"molecule": "CC1(C)O[C@@H]2C[C@H]3[C@H]4C[C@H](F)C5=CC(=O)CC[C@]5(C)[C@@H]4[C@H](O)C[C@]3(C)[C@]2(C(=O)CO)O1", "class-label": "inactive"}
{"molecule": "Clc1ccc([C@H](Cn2ccnc2)OCc2c(Cl)cccc2Cl)c(Cl)c1", "class-label": "active"}
{"molecule": "O=C1OC(CO)C(O)C(O)C1O (stereo not drawn)", "class-label": "inactive"}
{"molecule": "COC(=O)C(Cc1ccccc1)NC(=O)C(N)CC(=O)O (stereo not drawn) (H-Asp-Phe-OMe; configuration not given here)", "class-label": "inactive"}

[in] Please share the test call associated with CC[C@H](Cc1c(I)cc(I)c(N)c1I)C(=O)O .
[out] inactive

[in] Per the assay record, what outcome was assigned to NC[C@@H]1O[C@@H](O[C@H]2[C@H](O)[C@H](O[C@@H]3O[C@H](CO)[C@@H](O)[C@H](N)[C@@H]3O)[C@@H](N)C[C@H]2N)[C@H](N)C[C@@H]1O ?
[out] inactive

[in] Just curious, what result did CC(C)(C)NC(=O)[C@@H]1CC[C@@H]2[C@@H]3CC[C@@H]4NC(=O)C=C[C@@]4(C)[C@H]3CC[C@]21C get here?
[out] inactive

###

# assay-summary: Stat Signaling Pathway (AID 446);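 note: ME-180 cervical cancer cells given 40 pM IL-6 alongside compound; SIE-controlled beta-lactamase reporter measured as 460/530 nm FRET emission ratio; % is set by controls: 0 for no effect and ±100 for the full control effect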
# test-context: ME-180 (cervical carcinoma) SIE beta-lactamase reporter, IL-6 stimulated, 5 h; series mostly up to 17.2 µM
Results filed as inconclusive are left out. Active and inactive are the calls of the source. The call rests on the fitted dose curve; in most records, active means well fitted curve in either direction with a large enough effect (not every such curve was filed as active); inconclusive means small, poorly fitted or top-dose-only effect, or another doubt; inactive means flat fitted curve, though single readings scatter.
assay-readout: outcome

{"compound": "CC[C@](C)(CN(C)C)OC(=O)c1ccccc1", "recorded-measurement": "inactive"}
{"compound": "CC[C@H](C)C(=O)O[C@@H]1C[C@H](C)C=C2C=C[C@H](C)[C@@H](CC[C@H]3C[C@@H](O)CC(=O)O3)[C@H]21", "recorded-measurement": "inactive"}
{"compound": "C[C@@H]1[C@H](C)CC[C@@]2(C(=O)O)CC[C@]3(C)C(=CC[C@H]4[C@@]5(C)CC[C@@H](O)C(C)(C)[C@@H]5CC[C@@]43C)[C@@H]12", "recorded-measurement": "inactive"}
{"compound": "C#C[C@@]1(O)CC[C@@H]2[C@@H]3CCC4=CC(=O)CC[C@@H]4[C@H]3CC[C@]21CC", "recorded-measurement": "inactive"}
{"compound": "C[C@H](N)CCCC(C)(C)O", "recorded-measurement": "inactive"}

[in] Report measured outcome; entry is CCCC[C@H](CC)CN1CN(C[C@@H](CC)CCCC)CC(C)(N)C1
[out] inactive

[in] Name the recorded outcome of the item CCC(=O)OCC(=O)[C@@]1(OC(=O)CC)[C@H](C)C[C@@H]2[C@H]3CCC4=CC(=O)C=C[C@]4(C)[C@]3(Cl)[C@@H](O)C[C@@]21C in your answer.
[out] inactive

[in] Report outcome, nothing else, for this compound: COc1c(O[C@H]2O[C@@H](CO)[C@@H](O)[C@@H](O)[C@@H]2O)cc2c(c1OC)-c1ccc(SC)c(=O)cc1[C@H](NC(C)=O)CC2
[out] inactive

[in] Give the measured outcome for OCCOCCN1CCN([C@@H](c2ccccc2)c2ccc(Cl)cc2)CC1
[out] inactive

###

# assay-summary: qHTS Assay for Lipid Storage Modulators (AID 1519); note: % is set by controls: 0 for no effect and ±100 for the full control effect
# test-context: Drosophila S3 cells, BODIPY lipid droplet/cell ratio, laser cytometry; at 57.5 µM (top of the series); cells loaded with oleic acid
Inconclusive results are not listed.
assay-readout: activity change, negative = inhibition (%)
Numeric answer only, unit % assumed.

Look over these answered cases.
{"molecule": "COc1ccc(-c2coc3c(OC)c(OC)cc(OC)c3c2=O)cc1", "activity change, negative = inhibition [%]": 12.7}
{"molecule": "COc1ccc(-c2cc(=O)c3c(O)cc(O[C@@H]4OC(COC5OC(C)C(O)C(O)[C@@H]5O)C(O)C(O)C4O)cc3o2)cc1 (stereo not given in full)", "activity change, negative = inhibition [%]": 5.1}
{"molecule": "Cc1cc(O)c(C=O)c(O)c1C(=O)O", "activity change, negative = inhibition [%]": 3.98}
{"molecule": "CC(=O)OCC1OC(n2c(Br)nc3c(=O)[nH]c(N)nc32)C(OC(C)=O)C1OC(C)=O (stereo not given)", "activity change, negative = inhibition [%]": 1.02}

Now take the following molecule into account.
[in] Query activity change, negative = inhibition for Nc1nc2ncc(=O)[nH]c2c(=O)[nH]1
[out] 4.1

###

# Test system: CP211
# assay-summary: qHTS profiling for inhibitors of Plasmodium falciparum proliferation (AID 504749); note: nearly all actives have a fitted effect of over 60% in size
# test-context: P. falciparum in erythrocytes, SYBR Green DNA, 72 h; series mostly up to 12.8 µM
Records with an inconclusive call do not appear. Activity calls are given as the source filed them. Calls come from the whole dose curve; as a rule, active = well fitted inhibition curve with a large enough effect; inconclusive = small, poorly fitted or top-dose-only effect; inactive = flat fitted curve, though single readings scatter.
Select the correct class. Options are 1 (yes) = active, 0 (no) = inactive and nothing else.

{"molecule": "CN(C)CCc1c[nH]c2ccc(CC3COC(=O)N3)cc12 (configuration not stated)", "target-desc": "CP211", "class-label": "0 (no)"}
{"molecule": "CC[C@](C)(CN(C)C)OC(=O)c1ccccc1", "target-desc": "CP211", "class-label": "0 (no)"}

[in] // param item: CN[C@H]1[C@H](O)[C@@H](O[C@@H]2[C@H](O)[C@@H](O[C@H]3OC(CN)=CC[C@H]3N)[C@@H](N)C[C@H]2N)OC[C@@]1(C)O ; yields the recorded call
[out] 0 (no)

[in] Please state the recorded outcome for this molecule: COc1c(O[C@H]2O[C@@H](CO)[C@@H](O)[C@@H](O)[C@@H]2O)cc2c(c1OC)-c1ccc(SC)c(=O)cc1[C@H](NC(C)=O)CC2
[out] 0 (no)

[in] # lookup: test call for CO[C@H]1[C@@H](OC(N)=O)[C@H](O)[C@@H](Oc2ccc3c(O)c(NC(=O)c4ccc(O)c(CC=C(C)C)c4)c(=O)oc3c2C)OC1(C)C
[out] 0 (no)

[in] Would you mind telling me which call this test gave C=CC1=C(C(=O)O)N2C(=O)[C@@H](NC(=O)/C(=N\OCC(=O)O)c3csc(N)n3)[C@@H]2SC1 ?
[out] 0 (no)

[in] # fetch the recorded call for COc1ccc(C[C@@](C)(N)C(=O)O)cc1OC here
[out] 0 (no)

###

# Test system: TAB109
# assay-summary: qHTS profiling for inhibitors of Plasmodium falciparum proliferation (AID 504749); note: nearly all actives have a fitted effect of over 60% in size
# test-context: P. falciparum in erythrocytes, SYBR Green DNA, 72 h; series mostly up to 12.8 µM
Results filed as inconclusive are left out. Calls of active or inactive are those of the source. The call rests on the fitted dose curve; in most records, active means well fitted inhibition curve with a large enough effect; inconclusive means small, poorly fitted or top-dose-only effect; inactive means flat fitted curve, though single readings scatter.
Select the correct class. Options are class 1 (active), class 0 (inactive) and nothing else.

Before answering, review these 3 worked examples.
{"compound": "CCOC(=O)O[C@]1(C(=O)COC(=O)CC)CC[C@@H]2[C@@H]3CCC4=CC(=O)C=C[C@@]4(C)[C@H]3[C@H](O)C[C@]21C", "target-desc": "TAB109", "class-label": "class 0"}
{"compound": "CCC1OC(=O)CC(O)C(C)[C@@H](O[C@@H]2OC(C)[C@H](O[C@@H]3C[C@@](C)(O)C(O)C(C)O3)C(N(C)C)C2O)[C@H](CC=O)CC(C)C(=O)/C=C/C(C)=C/[C@@H]1COC1OC(C)C(O)C(OC)[C@@H]1OC (some centres undefined)", "target-desc": "TAB109", "class-label": "class 1"}
{"compound": "Cc1cccc(C)c1NC(=O)[C@H](C)N", "target-desc": "TAB109", "class-label": "class 0"}

Now turn to the next compound.
[in] GET /call?item= C[C@H](CCC(=O)O)[C@H]1CC[C@@H]2[C@@H]3[C@@H](O)C[C@H]4C[C@@H](O)CC[C@@]4(C)[C@H]3CC[C@@]21C returns the recorded outcome of this test.
[out] class 0
